This section presents compounds with their documented T/C values.
test system: BDF1 mice, P388 leukemia ip, median survival T/C; experiment: NCI In Vivo Anticancer Drug Screen. Data for tumor model P388 Leukemia (intraperitoneal) in B6D2F1 (BDF1) mice; details: endpoint: median survival time; dose: 200.0 mg/kg/injection; schedule: Q01DX009 (ip); vehicle: saline with Tween-80; higher = longer survival
Toxic doses and inconclusive results are not listed.
measured parameter: T/C

CCOC(=O)CCCN(c1[nH]c(C)c(C)c1C#N)S(=O)(=O)c1ccc(C)cc1 ... 104 % of control
O=C1CCCCC1Oc1ccccc1 (configuration not stated) ... 91 % of control
CCCN1CSC(=S)N(Cc2ccccc2)C1 ... 100 % of control
CO/C=C1\Cc2cc(OC)c(OC)cc2C1=O ... 100 % of control
CC1(C)OCC(C2OC3OC(C)(C)OC3C2OP(=O)(N2CC2)N2CC2)O1 (configuration not stated) ... 123 % of control
O=C(Oc1ccc([N+](=O)[O-])cc1)c1ccc(C[n+]2ccccc2)cc1 ... 116 % of control
CN(C)CCC(O)c1c[nH]c2ccccc12 (configuration not stated) ... 97 % of control
Nc1nc(=O)n(CC(=O)c2cccs2)cc1F ... 86 % of control
NC(=O)c1ncc(-c2ccc(Cl)cc2)[nH]c1=O ... 90 % of control
CC(C)C(C(=O)c1ccccc1)c1ccccc1 (configuration not stated) ... 100 % of control
Clc1ccc2c(c1)nnn2OC1CCCCCC1 ... 108 % of control
O=C(Nc1ncccn1)C12CC3CC(CC(C3)C1)C2 ... 93 % of control
